Each recorded value in this set is attributed to PubChem BioAssay AID720726.

experiment: miR-122 upregulation in Huh7 hepatoma cells – cell-based, qRT-PCR, dry powder, orthogonal assay, dose response (AID 720726); conditions: Huh7 miR-122 levels, qRT-PCR, 48 h; at 35 µM (top of the series)
Calls of active or inactive are those of the source.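 How the source made its calls: active means fitted dose curve rising to 40 percent activity within the top usable dose; inconclusive means flat curve between 30 and 70 percent, or poor fit; inactive means the rest, including signal moving the wrong way.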
outcome-measure: miR-122 fold change

Known miR-122 fold change results, listed for orientation:
smiles-notation	miR-122 fold change
OCc1ccc(-c2nn(Cc3ccccc3)c3ccccc23)o1	0.428 fold change (inactive)
COc1cccc(-c2ccc3c(c2)O[C@H](CN(C)C(=O)C2CCOCC2)[C@H](C)CN([C@@H](C)CO)S3(=O)=O)c1	0.896 fold change (inactive)
COCC(=O)N(C)C[C@H]1Oc2cc(-c3ccccc3F)ccc2S(=O)(=O)N([C@@H](C)CO)C[C@H]1C	0.823 fold change (inactive)

### Prompt Return value of miR-122 fold change for input C[C@H]1CN([C@@H](C)CO)C(=O)c2cc(-c3ccc(C#N)cc3)cnc2O[C@H]1CN(C)Cc1cncnc1 , no commentary.
### Response 0.987 fold change (inactive)

----------
assay: miR-122 upregulation in Huh7 hepatoma cells – cell-based, qRT-PCR, dry powder, orthogonal assay, dose response (AID 720726); settings: Huh7 miR-122 levels, qRT-PCR, 48 h; at 35 µM (top of the series)
Activity calls are given as the source filed them.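 The calls were made as follows: active = fitted dose curve rising to 40 percent activity within the top usable dose; inconclusive = flat curve between 30 and 70 percent, or poor fit; inactive = the rest, including signal moving the wrong way.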
outcome-measure: miR-122 fold change

Known miR-122 fold change results, listed for orientation:
smiles-notation	miR-122 fold change
C[C@H]1CN([C@@H](C)CO)C(=O)c2cc(-c3ccc(C#N)cc3)cnc2O[C@H]1CN(C)C(=O)c1ccccc1	1.14 fold change (inactive)
C[C@@H]1CN([C@@H](C)CO)S(=O)(=O)c2ccc(C#Cc3ccncc3)cc2O[C@H]1CN(C)C(=O)C1CCOCC1	0.639 fold change (inactive)
O=C(c1ccc(CN2CCOCC2)cc1)N1CCc2ccccc21	1 fold change (inactive)
COCC(=O)N(C)C[C@@H]1Oc2ncc(-c3ccc(C#N)cc3)cc2C(=O)N([C@@H](C)CO)C[C@@H]1C	1.01 fold change (inactive)
CCOC(=O)N1CCC(NC(=O)c2ccc3nc(N4CCC(C)CC4)sc3c2)CC1	1 fold change (inactive)
CCn1cc(C(=O)O)c(=O)c2cc(F)c(N3CCNCC3)nc21	0.972 fold change (inactive)
C[C@H]1CN([C@@H](C)CO)S(=O)(=O)c2ccc(C#Cc3ccncc3)cc2O[C@@H]1CN(C)C(=O)C1CCOCC1	0.399 fold change (inactive)

Continue with the compound presented below.
### Prompt Return value of miR-122 fold change for input C[C@@H]1CN([C@H](C)CO)S(=O)(=O)c2ccc(C#Cc3ccncc3)cc2O[C@@H]1CN(C)C(=O)C1CCOCC1 , no commentary.
### Response 0.732 fold change (inactive)

----------
assay: miR-122 upregulation in Huh7 hepatoma cells – cell-based, qRT-PCR, dry powder, orthogonal assay, dose response (AID 720726); conditions: Huh7 miR-122 levels, qRT-PCR, 48 h; at 35 µM (top of the series)
Activity calls are given as the source filed them.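 How the source made its calls: active means fitted dose curve rising to 40 percent activity within the top usable dose; inconclusive means flat curve between 30 and 70 percent, or poor fit; inactive means the rest, including signal moving the wrong way.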
Assign miR-122 fold change to each entry below.

smiles-notation	miR-122 fold change
O=C(CN=C1NS(=O)(=O)c2ccccc21)Nc1ccccc1N1CCCCCC1	1.09 fold change (inactive)
CN(C)CCN1C(=O)c2cccc3cc(N)cc(c23)C1=O	0.364 fold change (inactive)
CN1C(=O)c2cc(NC(=O)c3cccc(F)c3)ccc2OC[C@H]2O[C@@H](CC(=O)O)CC[C@@H]21	1.24 fold change (inactive)
CN1C(=O)c2cc(NC(=O)c3cccc(F)c3)ccc2OC[C@@H]2O[C@@H](CC(=O)O)CC[C@@H]21	0.94 fold change (inactive)
C[C@@H]1CN([C@H](C)CO)S(=O)(=O)c2ccc(C#Cc3ccncc3)cc2O[C@H]1CN(C)C(=O)C1CCOCC1	0.486 fold change (inactive)
O=C(NCc1ccccc1Cl)c1ccc(CNc2c(NC3CCCCC3)c(=O)c2=O)cc1	0.171 fold change (inactive)
COc1ccc(S(=O)(=O)N(C)C[C@@H]2Oc3ncc(/C=C/c4ccccc4)cc3C(=O)N([C@@H](C)CO)C[C@@H]2C)cc1	0.9 fold change (inactive)
C[C@@H]1CN([C@@H](C)CO)S(=O)(=O)c2ccc(C#Cc3ccncc3)cc2O[C@@H]1CN(C)C(=O)C1CCOCC1	0.563 fold change (inactive)

Continue with the molecule presented below.
### Prompt Return value of miR-122 fold change for input CCN(CC)C(=O)c1cccc(NC(=O)c2ccc(Cl)cc2Cl)c1 , no commentary.
### Response 0.931 fold change (inactive)
